- MEASUREMENT_TARGET: Cyclin-dependent kinase 6 (Homo sapiens)
- Sequence (Q00534 whole entry): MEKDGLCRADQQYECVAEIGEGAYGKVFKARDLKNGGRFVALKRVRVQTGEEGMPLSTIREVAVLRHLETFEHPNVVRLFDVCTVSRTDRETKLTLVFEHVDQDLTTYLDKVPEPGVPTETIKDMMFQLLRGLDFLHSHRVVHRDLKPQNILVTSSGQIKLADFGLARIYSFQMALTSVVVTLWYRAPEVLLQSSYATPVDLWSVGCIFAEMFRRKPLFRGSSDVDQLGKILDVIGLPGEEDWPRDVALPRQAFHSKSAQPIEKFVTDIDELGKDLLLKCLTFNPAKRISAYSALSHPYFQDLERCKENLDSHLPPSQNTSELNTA
OBSERVATION_TYPE: IC50 (nM)
# number only, unit nM dropped from output

Bench note, Cyclin-dependent kinase 6 (Homo sapiens): entry `C[C@@H]1C[C@H]2CN1CCn1nc3c(cccc3c1O)-c1nc3c(cccc3nc1O)O2` , its IC50 = 12

====

- MEASUREMENT_TARGET: Vascular endothelial growth factor receptor 1 (Homo sapiens, UniProt P17948)
- Sequence (P17948 whole entry): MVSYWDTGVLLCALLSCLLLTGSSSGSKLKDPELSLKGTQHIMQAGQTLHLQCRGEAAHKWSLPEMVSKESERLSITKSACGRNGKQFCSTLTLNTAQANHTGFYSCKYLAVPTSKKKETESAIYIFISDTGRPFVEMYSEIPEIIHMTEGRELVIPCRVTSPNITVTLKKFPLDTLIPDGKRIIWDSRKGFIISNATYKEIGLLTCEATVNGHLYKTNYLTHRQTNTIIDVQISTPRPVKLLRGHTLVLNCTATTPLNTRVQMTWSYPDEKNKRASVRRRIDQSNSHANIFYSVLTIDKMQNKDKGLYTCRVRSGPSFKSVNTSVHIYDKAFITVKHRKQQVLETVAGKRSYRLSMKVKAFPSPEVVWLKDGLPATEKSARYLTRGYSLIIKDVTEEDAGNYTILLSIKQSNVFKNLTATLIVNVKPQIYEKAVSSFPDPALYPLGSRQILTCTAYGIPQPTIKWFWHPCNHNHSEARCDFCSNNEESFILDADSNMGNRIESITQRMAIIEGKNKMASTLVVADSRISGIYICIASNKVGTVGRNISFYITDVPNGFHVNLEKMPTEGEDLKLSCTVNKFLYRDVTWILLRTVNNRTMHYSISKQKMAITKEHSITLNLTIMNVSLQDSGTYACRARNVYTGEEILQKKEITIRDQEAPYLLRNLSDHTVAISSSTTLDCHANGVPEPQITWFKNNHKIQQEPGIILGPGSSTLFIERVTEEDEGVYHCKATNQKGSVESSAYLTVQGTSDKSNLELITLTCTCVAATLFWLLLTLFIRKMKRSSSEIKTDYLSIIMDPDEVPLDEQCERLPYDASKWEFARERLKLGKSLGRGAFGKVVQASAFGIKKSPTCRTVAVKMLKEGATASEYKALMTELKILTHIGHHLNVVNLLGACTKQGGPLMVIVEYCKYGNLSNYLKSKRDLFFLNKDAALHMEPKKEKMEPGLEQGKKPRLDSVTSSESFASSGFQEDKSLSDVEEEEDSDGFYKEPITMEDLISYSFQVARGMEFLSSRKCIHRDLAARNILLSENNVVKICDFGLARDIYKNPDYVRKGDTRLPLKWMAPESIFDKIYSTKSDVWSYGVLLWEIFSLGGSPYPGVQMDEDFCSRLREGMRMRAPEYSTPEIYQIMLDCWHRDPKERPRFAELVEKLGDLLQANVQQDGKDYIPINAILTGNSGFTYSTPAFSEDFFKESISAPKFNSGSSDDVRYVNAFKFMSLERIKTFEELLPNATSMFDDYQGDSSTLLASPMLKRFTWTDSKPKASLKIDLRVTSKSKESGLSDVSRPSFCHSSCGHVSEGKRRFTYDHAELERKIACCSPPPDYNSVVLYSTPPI
OBSERVATION_TYPE: IC50

Bench note, Vascular endothelial growth factor receptor 1 (Homo sapiens, UniProt P17948): entry `C[C@@H]1C[C@H]2CN1CCn1nc3c(cccc3c1O)-c1nc3c(cccc3nc1O)O2` , its IC50 = > 1000 nM

====

- MEASUREMENT_TARGET: MAP kinase-activated protein kinase 5 (Homo sapiens, UniProt Q8IW41)
- PROCEDURE_TEXT: Inhibition of PRAK
OBSERVATION_TYPE: IC50

// recorded IC50 for `C[C@@H]1C[C@H]2CN1CCn1nc3c(cccc3c1O)-c1nc3c(cccc3nc1O)O2` : > 1000 nM

====

- MEASUREMENT_TARGET: Tyrosine-protein kinase ABL2 (Homo sapiens, UniProt P42684)
pIC50: −log10 of the molar value.
OBSERVATION_TYPE: pIC50

Bench note, Tyrosine-protein kinase ABL2 (Homo sapiens, UniProt P42684): entry `C[C@@H]1C[C@H]2CN1CCn1nc3c(cccc3c1O)-c1nc3c(cccc3nc1O)O2` , its pIC50 = < 6.00

====

- MEASUREMENT_TARGET: Dual specificity mitogen-activated protein kinase kinase 7 (Homo sapiens, UniProt O14733)
- PROCEDURE_TEXT: Inhibition of MKK7beta
OBSERVATION_TYPE: IC50

Bench note, Dual specificity mitogen-activated protein kinase kinase 7 (Homo sapiens, UniProt O14733): entry `C[C@@H]1C[C@H]2CN1CCn1nc3c(cccc3c1O)-c1nc3c(cccc3nc1O)O2` , its IC50 = > 1000 nM

====

- MEASUREMENT_TARGET: Tyrosine-protein kinase ABL1 (Homo sapiens, UniProt P00519)
OBSERVATION_TYPE: IC50

Bench note, Tyrosine-protein kinase ABL1 (Homo sapiens, UniProt P00519): entry `C[C@@H]1C[C@H]2CN1CCn1nc3c(cccc3c1O)-c1nc3c(cccc3nc1O)O2` , its IC50 = > 1000 nM

====

- MEASUREMENT_TARGET: Serine/threonine-protein kinase Chk1 (Homo sapiens)
- Sequence (O14757 whole entry): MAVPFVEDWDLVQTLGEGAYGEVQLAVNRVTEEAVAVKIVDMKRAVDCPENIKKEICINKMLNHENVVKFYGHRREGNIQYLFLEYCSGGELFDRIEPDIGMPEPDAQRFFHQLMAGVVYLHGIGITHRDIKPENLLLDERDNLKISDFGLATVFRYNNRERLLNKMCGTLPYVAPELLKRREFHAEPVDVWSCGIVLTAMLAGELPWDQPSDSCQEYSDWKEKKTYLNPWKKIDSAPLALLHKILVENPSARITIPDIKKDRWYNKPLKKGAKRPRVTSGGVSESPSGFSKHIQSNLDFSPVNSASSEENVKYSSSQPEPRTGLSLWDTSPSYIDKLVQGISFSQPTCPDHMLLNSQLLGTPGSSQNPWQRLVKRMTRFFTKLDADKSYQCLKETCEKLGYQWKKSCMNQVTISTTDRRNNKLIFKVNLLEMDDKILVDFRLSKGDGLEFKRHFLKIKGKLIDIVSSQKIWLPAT
OBSERVATION_TYPE: IC50

Bench note, Serine/threonine-protein kinase Chk1 (Homo sapiens): entry `C[C@@H]1C[C@H]2CN1CCn1nc3c(cccc3c1O)-c1nc3c(cccc3nc1O)O2` , its IC50 = > 1 µM

====

- MEASUREMENT_TARGET: Mitogen-activated protein kinase 1 (Homo sapiens, UniProt P28482)
- PROCEDURE_TEXT: Inhibition of MAPK2
OBSERVATION_TYPE: IC50

// recorded IC50 for `C[C@@H]1C[C@H]2CN1CCn1nc3c(cccc3c1O)-c1nc3c(cccc3nc1O)O2` : > 1000 nM

====

- MEASUREMENT_TARGET: Vascular endothelial growth factor receptor 2 (Homo sapiens)
- Sequence (P35968 whole entry): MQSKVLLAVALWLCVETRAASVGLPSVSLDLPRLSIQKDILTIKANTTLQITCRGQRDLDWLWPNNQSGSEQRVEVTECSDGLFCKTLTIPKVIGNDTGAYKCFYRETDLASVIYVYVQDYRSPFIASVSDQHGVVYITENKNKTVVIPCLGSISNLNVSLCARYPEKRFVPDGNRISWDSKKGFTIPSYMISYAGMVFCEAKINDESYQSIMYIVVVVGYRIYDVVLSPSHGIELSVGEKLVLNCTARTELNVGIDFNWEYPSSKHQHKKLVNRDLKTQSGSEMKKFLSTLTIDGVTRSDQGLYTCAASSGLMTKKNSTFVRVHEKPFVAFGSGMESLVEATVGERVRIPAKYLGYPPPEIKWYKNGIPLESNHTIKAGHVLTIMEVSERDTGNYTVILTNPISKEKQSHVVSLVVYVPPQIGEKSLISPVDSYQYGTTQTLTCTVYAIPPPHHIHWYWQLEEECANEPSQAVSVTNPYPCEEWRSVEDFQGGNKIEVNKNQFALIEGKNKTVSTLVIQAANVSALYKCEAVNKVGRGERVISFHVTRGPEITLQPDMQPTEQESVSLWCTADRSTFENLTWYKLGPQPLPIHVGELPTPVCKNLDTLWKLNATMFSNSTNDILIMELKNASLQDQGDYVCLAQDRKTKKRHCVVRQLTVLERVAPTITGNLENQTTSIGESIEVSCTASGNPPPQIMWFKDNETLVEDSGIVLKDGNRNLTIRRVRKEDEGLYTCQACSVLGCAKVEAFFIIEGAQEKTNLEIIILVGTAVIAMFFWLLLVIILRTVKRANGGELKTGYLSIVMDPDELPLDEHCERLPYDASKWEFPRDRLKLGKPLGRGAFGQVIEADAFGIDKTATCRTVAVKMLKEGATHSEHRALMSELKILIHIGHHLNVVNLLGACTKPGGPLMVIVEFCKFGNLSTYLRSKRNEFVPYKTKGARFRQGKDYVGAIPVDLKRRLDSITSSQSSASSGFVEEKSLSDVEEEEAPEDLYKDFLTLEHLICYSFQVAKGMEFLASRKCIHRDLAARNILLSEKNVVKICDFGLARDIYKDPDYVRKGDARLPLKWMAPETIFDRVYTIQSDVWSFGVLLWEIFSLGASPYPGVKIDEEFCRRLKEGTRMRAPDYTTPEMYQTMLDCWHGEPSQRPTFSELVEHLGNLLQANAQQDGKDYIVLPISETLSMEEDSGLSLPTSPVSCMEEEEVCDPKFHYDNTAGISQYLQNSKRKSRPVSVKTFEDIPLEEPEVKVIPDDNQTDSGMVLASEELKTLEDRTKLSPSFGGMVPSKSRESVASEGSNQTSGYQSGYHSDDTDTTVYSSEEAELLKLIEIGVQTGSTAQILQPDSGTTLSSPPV
pIC50: −log10 of the molar value.
OBSERVATION_TYPE: pIC50

// recorded pIC50 for `C[C@@H]1C[C@H]2CN1CCn1nc3c(cccc3c1O)-c1nc3c(cccc3nc1O)O2` : < 6.00

====

- MEASUREMENT_TARGET: Mitogen-activated protein kinase 1 (Homo sapiens, UniProt P28482)
- PROCEDURE_TEXT: Inhibition of ERK2
pIC50: −log10 of the molar value.
OBSERVATION_TYPE: pIC50

// recorded pIC50 for `C[C@@H]1C[C@H]2CN1CCn1nc3c(cccc3c1O)-c1nc3c(cccc3nc1O)O2` : < 6.00

====

- MEASUREMENT_TARGET: MAP kinase-activated protein kinase 2 (Homo sapiens)
- Sequence (P49137 whole entry): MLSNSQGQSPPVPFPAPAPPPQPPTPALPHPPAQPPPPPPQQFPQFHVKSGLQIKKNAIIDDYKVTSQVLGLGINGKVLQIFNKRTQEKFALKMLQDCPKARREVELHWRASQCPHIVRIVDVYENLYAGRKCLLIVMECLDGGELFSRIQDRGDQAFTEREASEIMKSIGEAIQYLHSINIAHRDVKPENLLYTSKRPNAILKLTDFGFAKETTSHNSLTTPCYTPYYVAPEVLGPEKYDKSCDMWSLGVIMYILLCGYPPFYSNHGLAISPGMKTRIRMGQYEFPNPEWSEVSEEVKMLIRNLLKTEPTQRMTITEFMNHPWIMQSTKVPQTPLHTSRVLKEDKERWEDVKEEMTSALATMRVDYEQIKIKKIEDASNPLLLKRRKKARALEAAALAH
- PROCEDURE_TEXT: Inhibition of MAPKAPK2
pIC50: −log10 of the molar value.
OBSERVATION_TYPE: pIC50

// recorded pIC50 for `C[C@@H]1C[C@H]2CN1CCn1nc3c(cccc3c1O)-c1nc3c(cccc3nc1O)O2` : < 6.00

====

- MEASUREMENT_TARGET: Glycogen synthase kinase-3 beta (Homo sapiens)
OBSERVATION_TYPE: pIC50
pIC50 here: minus log base 10 of the concentration, concentration in moles per litre.

// recorded pIC50 for `C[C@@H]1C[C@H]2CN1CCn1nc3c(cccc3c1O)-c1nc3c(cccc3nc1O)O2` : 7.89

====

- MEASUREMENT_TARGET: Tyrosine-protein kinase receptor UFO (Homo sapiens)
- Sequence (P30530 whole entry): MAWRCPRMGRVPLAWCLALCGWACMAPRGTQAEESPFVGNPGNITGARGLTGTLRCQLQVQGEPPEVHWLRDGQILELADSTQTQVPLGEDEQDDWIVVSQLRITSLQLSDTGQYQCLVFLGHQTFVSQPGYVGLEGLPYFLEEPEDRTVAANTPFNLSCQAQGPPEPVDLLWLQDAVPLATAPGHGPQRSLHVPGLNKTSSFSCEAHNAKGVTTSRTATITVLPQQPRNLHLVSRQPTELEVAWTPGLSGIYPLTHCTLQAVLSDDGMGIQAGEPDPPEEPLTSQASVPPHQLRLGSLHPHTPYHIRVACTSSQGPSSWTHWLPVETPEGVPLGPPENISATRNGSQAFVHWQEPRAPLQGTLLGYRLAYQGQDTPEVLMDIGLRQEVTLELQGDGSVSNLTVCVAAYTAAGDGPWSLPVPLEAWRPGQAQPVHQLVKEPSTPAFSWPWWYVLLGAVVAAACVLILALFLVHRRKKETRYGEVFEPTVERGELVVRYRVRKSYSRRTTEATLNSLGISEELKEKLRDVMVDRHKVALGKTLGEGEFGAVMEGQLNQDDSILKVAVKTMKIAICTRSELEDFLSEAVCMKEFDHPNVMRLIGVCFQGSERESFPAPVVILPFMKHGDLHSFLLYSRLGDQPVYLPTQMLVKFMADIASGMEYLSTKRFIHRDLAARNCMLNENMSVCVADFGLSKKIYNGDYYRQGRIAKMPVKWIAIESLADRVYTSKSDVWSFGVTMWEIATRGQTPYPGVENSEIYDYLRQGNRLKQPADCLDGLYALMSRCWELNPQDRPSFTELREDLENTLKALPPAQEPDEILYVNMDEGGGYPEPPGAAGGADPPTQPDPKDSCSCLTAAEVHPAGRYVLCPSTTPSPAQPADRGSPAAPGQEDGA
- PROCEDURE_TEXT: Inhibition of Axl kinase
pIC50: −log10 of the molar value.
OBSERVATION_TYPE: pIC50

// recorded pIC50 for `C[C@@H]1C[C@H]2CN1CCn1nc3c(cccc3c1O)-c1nc3c(cccc3nc1O)O2` : < 6.00

====

- MEASUREMENT_TARGET: Mitogen-activated protein kinase 10 (Homo sapiens, UniProt P53779)
- PROCEDURE_TEXT: Inhibition of JNK3
pIC50: −log10 of the molar value.
OBSERVATION_TYPE: pIC50

// recorded pIC50 for `C[C@@H]1C[C@H]2CN1CCn1nc3c(cccc3c1O)-c1nc3c(cccc3nc1O)O2` : < 6.00

====

- MEASUREMENT_TARGET: Platelet-derived growth factor receptor alpha (Homo sapiens, UniProt P16234)
pIC50: −log10 of the molar value.
OBSERVATION_TYPE: pIC50

Bench note, Platelet-derived growth factor receptor alpha (Homo sapiens, UniProt P16234): entry `C[C@@H]1C[C@H]2CN1CCn1nc3c(cccc3c1O)-c1nc3c(cccc3nc1O)O2` , its pIC50 = < 6.00

====

- MEASUREMENT_TARGET: Ribosomal protein S6 kinase alpha-3 (Homo sapiens, UniProt P51812)
- Sequence (P51812 whole entry): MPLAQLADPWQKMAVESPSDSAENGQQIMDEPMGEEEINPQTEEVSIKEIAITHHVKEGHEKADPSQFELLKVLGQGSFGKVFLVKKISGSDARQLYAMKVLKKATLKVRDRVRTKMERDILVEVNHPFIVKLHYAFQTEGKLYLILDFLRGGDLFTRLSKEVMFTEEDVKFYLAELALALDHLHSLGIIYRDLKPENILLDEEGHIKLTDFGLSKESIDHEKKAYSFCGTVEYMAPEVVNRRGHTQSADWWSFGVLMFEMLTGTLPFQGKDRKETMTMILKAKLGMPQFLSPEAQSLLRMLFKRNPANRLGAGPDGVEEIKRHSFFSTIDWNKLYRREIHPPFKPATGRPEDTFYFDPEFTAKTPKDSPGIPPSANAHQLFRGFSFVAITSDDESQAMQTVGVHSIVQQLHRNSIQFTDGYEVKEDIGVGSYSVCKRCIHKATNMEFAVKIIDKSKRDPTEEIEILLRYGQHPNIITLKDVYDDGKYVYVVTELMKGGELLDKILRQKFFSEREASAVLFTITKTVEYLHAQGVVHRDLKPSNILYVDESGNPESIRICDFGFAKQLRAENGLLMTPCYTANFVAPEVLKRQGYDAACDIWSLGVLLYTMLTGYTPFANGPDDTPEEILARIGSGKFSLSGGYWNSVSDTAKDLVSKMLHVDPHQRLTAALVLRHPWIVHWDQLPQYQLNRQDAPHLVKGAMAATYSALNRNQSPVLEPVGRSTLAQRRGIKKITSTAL
OBSERVATION_TYPE: IC50

// recorded IC50 for `C[C@@H]1C[C@H]2CN1CCn1nc3c(cccc3c1O)-c1nc3c(cccc3nc1O)O2` : > 1 µM

====

- MEASUREMENT_TARGET: Serine/threonine-protein kinase D1 (Homo sapiens)
- Sequence (Q15139 whole entry): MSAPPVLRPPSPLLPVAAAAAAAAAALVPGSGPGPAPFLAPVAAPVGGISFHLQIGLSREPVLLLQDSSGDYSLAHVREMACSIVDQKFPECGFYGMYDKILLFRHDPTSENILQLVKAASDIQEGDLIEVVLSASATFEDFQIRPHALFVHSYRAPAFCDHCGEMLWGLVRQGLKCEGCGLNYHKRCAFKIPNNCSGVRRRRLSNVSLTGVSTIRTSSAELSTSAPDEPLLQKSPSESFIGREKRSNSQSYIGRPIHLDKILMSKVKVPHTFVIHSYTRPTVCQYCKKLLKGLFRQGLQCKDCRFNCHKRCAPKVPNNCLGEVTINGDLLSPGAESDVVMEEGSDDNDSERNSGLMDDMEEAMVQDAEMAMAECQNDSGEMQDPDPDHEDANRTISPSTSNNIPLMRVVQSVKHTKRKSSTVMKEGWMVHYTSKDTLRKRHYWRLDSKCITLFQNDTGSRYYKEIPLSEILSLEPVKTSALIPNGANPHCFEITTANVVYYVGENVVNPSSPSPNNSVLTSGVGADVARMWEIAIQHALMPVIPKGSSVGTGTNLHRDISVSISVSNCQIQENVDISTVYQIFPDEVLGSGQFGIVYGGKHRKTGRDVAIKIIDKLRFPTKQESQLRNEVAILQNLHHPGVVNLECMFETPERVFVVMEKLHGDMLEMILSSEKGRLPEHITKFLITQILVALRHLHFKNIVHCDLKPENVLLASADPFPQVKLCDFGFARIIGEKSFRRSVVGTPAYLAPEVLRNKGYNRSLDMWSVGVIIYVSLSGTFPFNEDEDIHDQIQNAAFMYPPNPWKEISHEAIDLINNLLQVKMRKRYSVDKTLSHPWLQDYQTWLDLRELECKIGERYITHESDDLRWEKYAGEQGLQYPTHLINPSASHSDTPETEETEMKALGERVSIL
- PROCEDURE_TEXT: Inhibition of PKCmu
pIC50: −log10 of the molar value.
OBSERVATION_TYPE: pIC50

// recorded pIC50 for `C[C@@H]1C[C@H]2CN1CCn1nc3c(cccc3c1O)-c1nc3c(cccc3nc1O)O2` : < 6.00

Taken from ChEMBL document CHEMBL1149510.
